A compilation of Kd values for Retinoic acid receptor alpha (Homo sapiens, UniProt P10276) from the published literature.
- measured target: Retinoic acid receptor alpha (Homo sapiens, UniProt P10276)
- Sequence (P10276 whole entry): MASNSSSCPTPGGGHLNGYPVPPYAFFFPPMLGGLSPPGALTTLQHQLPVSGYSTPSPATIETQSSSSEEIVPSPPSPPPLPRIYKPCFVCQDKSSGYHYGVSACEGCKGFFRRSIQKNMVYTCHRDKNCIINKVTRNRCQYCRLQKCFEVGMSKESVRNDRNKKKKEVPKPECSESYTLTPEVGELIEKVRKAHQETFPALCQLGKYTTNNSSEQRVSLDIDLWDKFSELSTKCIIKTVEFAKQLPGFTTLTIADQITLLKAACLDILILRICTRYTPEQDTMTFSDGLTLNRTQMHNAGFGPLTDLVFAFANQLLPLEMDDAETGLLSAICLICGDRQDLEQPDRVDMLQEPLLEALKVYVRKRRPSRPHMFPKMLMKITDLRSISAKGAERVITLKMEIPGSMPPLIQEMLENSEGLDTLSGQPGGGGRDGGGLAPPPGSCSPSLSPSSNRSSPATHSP
// return numeric value only (unit: nM, not printed)

Known Kd results, listed for orientation:
CC(C)(C)c1ccc(C2=CCC(C)(C)c3ccc(C#Cc4ccc(C(=O)O)cc4)cc32)cc1	178
Cc1ccc(C2=CCC(C)(C)c3cc4ccc(-c5ccc(C(=O)O)cc5)cc4cc32)s1	15
CC1(C)CC=C(c2cccs2)c2cc(C(=O)Oc3ccc(C(=O)O)cc3)ccc21	303
CC1(C)CCC(C)(C)c2cc(C(=O)Nc3cc(F)c(C(=O)O)c(F)c3)ccc21	7
CC1(C)CC=C(c2ccccc2)c2cc(C#Cc3ccc(C(=O)O)cc3)ccc21	147
CC1(C)CC=C(c2ccc(C(F)(F)F)cc2)c2cc(C#Cc3ccc(C(=O)O)cc3)ccc21	44

Please find the next molecule below.
Reported Kd of CC1=C(/C=C/C#Cc2ccc(C(=O)O)cc2)C(C)(C)CCC1 : 135

###

Target chain: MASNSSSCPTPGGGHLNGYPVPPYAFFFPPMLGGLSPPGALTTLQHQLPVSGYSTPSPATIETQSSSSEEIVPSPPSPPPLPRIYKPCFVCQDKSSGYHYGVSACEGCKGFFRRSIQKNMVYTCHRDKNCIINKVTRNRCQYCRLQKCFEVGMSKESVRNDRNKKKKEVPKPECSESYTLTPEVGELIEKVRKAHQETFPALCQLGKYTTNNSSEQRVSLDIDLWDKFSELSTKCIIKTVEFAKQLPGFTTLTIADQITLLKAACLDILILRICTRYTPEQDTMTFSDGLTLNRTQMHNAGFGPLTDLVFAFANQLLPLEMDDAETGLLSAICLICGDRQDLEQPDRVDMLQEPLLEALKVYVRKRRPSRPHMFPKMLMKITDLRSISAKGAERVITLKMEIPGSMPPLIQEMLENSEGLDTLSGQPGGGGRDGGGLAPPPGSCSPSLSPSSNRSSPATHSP
Field log10 Kd: reported value for the protein given by its sequence; entries drawn from several documents.
Parameter value (number): base-10 log of Kd in µM.

CC1(C)CC=C(c2cccs2)c2cc(C(=O)Nc3ccc(C(=O)O)cc3)ccc21	-1.03

The measured log10 Kd that CCc1ccc(C2=CCC(C)(C)c3ccc(C#Cc4ccc(C(=O)O)cc4)cc32)cc1 showed for the protein given by its sequence is -1.40

So the reported log10 Kd for CC1(C)CCC(C)(C)c2cc(C/C=C/c3ccc(C(=O)O)cc3)ccc21 , on the protein given by its sequence, turned out to be -1.44

Value sought: log10 Kd, system the protein given by its sequence, item CC1(C)CCC(C)(C)c2cc(C(=O)Nc3ccc(C(=O)O)c(F)c3)ccc21 . Result: -2.70

Tested on the protein given by its sequence, the item CC1(C)CC=C(c2ccc(O)cc2)c2cc(C#Cc3ccc(C(=O)O)cc3)ccc21 showed log10 Kd equal to -0.64
